Below is a list of entries, each paired with its recorded pIC50 value.
Biological target: 5α-reductase 2 (Homo sapiens, UniProt P31213)
Construct: 100,000 x g pellet of the lysate
Sequence (P31213 whole entry): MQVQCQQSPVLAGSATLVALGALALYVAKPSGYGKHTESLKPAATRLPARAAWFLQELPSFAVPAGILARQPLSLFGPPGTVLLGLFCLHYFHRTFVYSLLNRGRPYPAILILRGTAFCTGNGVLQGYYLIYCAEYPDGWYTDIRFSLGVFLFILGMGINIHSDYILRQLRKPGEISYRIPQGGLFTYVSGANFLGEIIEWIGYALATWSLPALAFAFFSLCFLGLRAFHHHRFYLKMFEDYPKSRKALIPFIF
Experiment: Inhibition of type 2 5α-reductase (14C-testosterone to DHT conversion, lysate of transfected COS7 cells)
Settings: pH 5.5 citrate buffer, 1 nM 14C-testosterone, 5 mM NADPH, 50 minutes at 37° C.; read-out: 5α-reductases: IC50 Type II
Experimental: The coding sequences (complementary deoxyribonucleic acids: cDNA) of 5α-reductase 1 and of 5α-reductase 2 were cloned in the eukaryotic expression vector pSG5 (Stratagene). The enzymes were over-expressed after transient transfection of COS7 cells (ATCC, CRL 1651). […] The reaction mixtures are then placed directly on a silica plate (HPTLC, 60F 254, Merck) and subjected to chromatography (solvent=10% diethyl ether, 90% dichloromethane). They are then analysed by digital autoradiography (Berthold). […]
pIC50: −log10 of the molar value.
endpoint: pIC50

> print(dat)
                              record.smiles  endpoint        result
1  COc1cc(OCc2cc(C(F)(F)F)cc(C(F)(F)F)c2)c2cc(C(=O)O)[nH]c2c1     pIC50        < 4.00
2  COc1cc2[nH]c(C(=O)O)cc2cc1OCc1cc(C(F)(F)F)cc(C(F)(F)F)c1     pIC50  8.30 to 9.00
3    COc1cc(OCc2ccccc2)c2cc(C(=O)O)[nH]c2c1     pIC50        < 4.00

----------
Target: 5α-reductase 1 (Homo sapiens, UniProt P18405)
Construct: 100,000 x g pellet of the lysate
Sequence (P18405 1-259): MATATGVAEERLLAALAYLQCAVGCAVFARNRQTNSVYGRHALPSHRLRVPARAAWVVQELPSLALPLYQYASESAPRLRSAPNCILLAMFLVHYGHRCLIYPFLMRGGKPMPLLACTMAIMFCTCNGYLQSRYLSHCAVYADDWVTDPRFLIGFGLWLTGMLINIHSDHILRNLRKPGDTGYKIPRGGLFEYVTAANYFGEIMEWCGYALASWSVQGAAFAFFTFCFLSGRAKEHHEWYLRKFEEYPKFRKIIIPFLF
Assay: Inhibition of type 1 5α-reductase (14C-testosterone to DHT conversion, lysate of transfected COS7 cells)
Settings: pH 6.5 phosphate buffer, 1 nM 14C-testosterone, 5 mM NADPH, 50 minutes at 37° C.; read-out: 5α-reductases: IC50 Type I
endpoint: IC50

> print(dat)
                                   compound  endpoint     result
1  O=C(O)c1cc2c(ccc3ccccc32)[nH]1 [Example 7, 3H-benz[e]indole-2-carboxylic acid]      IC50       3 µM
2  COc1ccc(COc2cc3cc(C(=O)O)[nH]c3cc2OC)cc1      IC50  1 to 5 µM
3    COc1cc(OCc2ccccc2)c2cc(C(=O)O)[nH]c2c1      IC50  1 to 4 µM
